- System: HEK-293T
- experiment: Multiplex assay against HEK293T
- Assay type: toxicity, cell-based
- test_conditions: human, 24 h, 10 µM, compound concentration 10 uM, replicate 2
Classes based on Population Fragmented Nuclei (%): I: < 5%; II: ≥ 5% and < 9%; III: ≥ 9%

{"molecule": "CN1CCC[C@@H]1CCO[C@](C)(c1ccccc1)c1ccc(Cl)cc1.O=C(O)/C=C/C(=O)O [CLEMASTINE FUMARATE]", "cat": "I"}
{"molecule": "Cl.N#Cc1ccc2[nH]cc(CCCCN3CCN(c4ccc5oc(C(N)=O)cc5c4)CC3)c2c1 [VILAZODONE HYDROCHLORIDE]", "cat": "III"}
{"molecule": "CN(C)C(=O)/C(C#N)=C/c1ccc(-c2nc3cnc4[nH]ccc4c3n2C2CCCCC2)o1", "cat": "III"}
{"molecule": "Cc1[nH]c(/C=C2\\C(=O)Nc3ccc(S(=O)(=O)N(C)c4cccc(Cl)c4)cc32)c(C)c1C(=O)N1CCN(C)CC1", "cat": "II"}
{"molecule": "Cc1cc(C)cc(-c2cnc3cc(Cl)c(-c4cccc(O)c4)cc3c2OCCCN)c1", "cat": "II"}
{"molecule": "C=CC(=O)Nc1ccc2ncnc(Nc3ccc(OCc4cccc(F)c4)c(Cl)c3)c2c1.Cc1ccc(S(=O)(=O)O)cc1", "cat": "III"}
{"molecule": "CCN(CC)CCCCNc1ncc2cc(-c3cc(OC)cc(OC)c3)c(NC(=O)NC(C)(C)C)nc2n1", "cat": "III"}
{"molecule": "Cn1cc(-c2[nH]c3cc(NC(=O)[C@H](N)C4CCCCC4)cc4c3c2C=NNC4=O)cn1", "cat": "II"}
{"molecule": "CC(C)NCC(O)COc1ccc(CCOCC2CC2)cc1.Cl (stereo unspecified) [BETAXOLOL HYDROCHLORIDE]", "cat": "I"}
{"molecule": "CC(C)(O)CNc1ncc(-c2ccnc(Nc3ccnc(Cl)c3)n2)c(CC2CC2)n1", "cat": "I"}
{"molecule": "CN(C)CC#Cc1ccc(OCCCc2sc(N3CCc4cccc(C(=O)Nc5nc6ccccc6s5)c4C3)nc2C(=O)O)c(F)c1", "cat": "III"}
{"molecule": "CC[C@H](C)C(=O)O[C@H]1C[C@@H](C)C=C2C=C[C@H](C)[C@H](CC[C@@H]3C[C@@H](O)CC(=O)O3)[C@H]21", "cat": "I"}
